# Study target: Aurora kinase A (Homo sapiens, UniProt O14965)
# Sequence (O14965 whole entry): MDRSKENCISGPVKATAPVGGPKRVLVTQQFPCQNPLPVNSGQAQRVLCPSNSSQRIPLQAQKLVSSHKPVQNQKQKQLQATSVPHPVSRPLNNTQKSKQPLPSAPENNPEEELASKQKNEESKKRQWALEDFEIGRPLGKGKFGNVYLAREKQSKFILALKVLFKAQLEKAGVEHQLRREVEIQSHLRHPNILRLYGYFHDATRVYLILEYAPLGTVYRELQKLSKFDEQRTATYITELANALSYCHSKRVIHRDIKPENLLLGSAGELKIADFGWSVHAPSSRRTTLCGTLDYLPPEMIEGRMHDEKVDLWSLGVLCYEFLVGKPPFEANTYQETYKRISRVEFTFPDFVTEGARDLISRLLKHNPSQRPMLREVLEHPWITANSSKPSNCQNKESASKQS
Kindly find below IC50 information for Aurora kinase A (Homo sapiens, UniProt O14965) taken from the literature.
Measurement type: IC50 (nM)

Ask: Need IC50, item COC(=O)c1cccc(NC(=O)c2cc(-n3cc(CNc4nc5ccccc5o4)nn3)ccc2O)c1
Reply: 3520

Ask: Also, COc1cc2nccc(Oc3ccc4c(C(=O)NC5CCCC5)cccc4c3)c2cc1OC please.
Reply: 620

Ask: Also, CC(CO)NC(=N)c1c(O)nsc1Nc1ccc(Nc2ccccc2)cc1 (stereo not drawn) please.
Reply: 265

Ask: Also, Cc1cn2c(-c3cnn(CC(=O)Nc4cccnc4F)c3)cnc2c(Nc2cc(CN3CCCC(C)C3)ns2)n1 (stereo not drawn) please.
Reply: 753

Ask: Also, COc1cc2ncnc(Oc3ccc4c(C(N)=O)cccc4c3)c2cc1OC please.
Reply: 8300

I: COc1cccc(NC(=O)Cc2cnc(Nc3ncnc4cc(OCCCN5CCC[C@H]5CO)c(OC)cc34)s2)c1
II: CCc1cccc(CC)c1NC(=O)c1nn(C)c2c1CCc1cnc(Nc3ccc(C(=O)NC4CCN(C)CC4)cc3OC)nc1-2
Ask: Endpoint returns whichever of I and II has the numerically higher IC50. Please identify the chosen entry by its label.
Reply: II

I: O=C(Nc1ccccc1)Nc1ccc(CCNc2ncnc3ccccc23)cc1
II: CN(C)C(=O)[C@@H]1CCCN1C(=O)c1cc(Nc2ncc3cnn([C@@H]4C[C@H]5C[C@H]5C4)c3n2)cn1C
III: CC(=O)Nc1ccc(Nc2nc(-c3cccnc3)cn3ccnc23)cc1
IV: Cc1ccc(C(=O)Nc2ccc(Nc3ccnc4[nH]c(=O)c5ccccc5c34)cc2)cc1
V: O=C(Nc1ccc(Nc2ccnc3[nH]c(=O)c4ccccc4c23)cc1)c1ccc(F)cc1C(F)(F)F
Ask: Task field, ranking: reported IC50, descending order. Please respond by ranking the labels in the order requested.
Reply: III, I, II, IV, V

a: CC(=O)c1cccc(-c2ccc(-c3nc4ncc(Br)c(N5CCN(Cc6cc(C)on6)CC5)c4[nH]3)cc2)c1
b: Cn1nc(C(N)=O)c2c1-c1nc(NCc3ccc(S(C)(=O)=O)cc3)ncc1CC2
Ask: Returns the identifier with the smallest measured IC50 among a and b . Please identify the chosen entry by its label.
Reply: a
